- assayed-target: T1, monomeric human c-fms (residues 1-512)-pHis (human, UniProt P07333 20-512)
- T1 construct: Construct stated as residues 1-512; signal stated as amino acids 1-19 and left out; also called human c-fms (1-512).pHIS; monomeric c-fms
- T1 sequence (P07333 20-512): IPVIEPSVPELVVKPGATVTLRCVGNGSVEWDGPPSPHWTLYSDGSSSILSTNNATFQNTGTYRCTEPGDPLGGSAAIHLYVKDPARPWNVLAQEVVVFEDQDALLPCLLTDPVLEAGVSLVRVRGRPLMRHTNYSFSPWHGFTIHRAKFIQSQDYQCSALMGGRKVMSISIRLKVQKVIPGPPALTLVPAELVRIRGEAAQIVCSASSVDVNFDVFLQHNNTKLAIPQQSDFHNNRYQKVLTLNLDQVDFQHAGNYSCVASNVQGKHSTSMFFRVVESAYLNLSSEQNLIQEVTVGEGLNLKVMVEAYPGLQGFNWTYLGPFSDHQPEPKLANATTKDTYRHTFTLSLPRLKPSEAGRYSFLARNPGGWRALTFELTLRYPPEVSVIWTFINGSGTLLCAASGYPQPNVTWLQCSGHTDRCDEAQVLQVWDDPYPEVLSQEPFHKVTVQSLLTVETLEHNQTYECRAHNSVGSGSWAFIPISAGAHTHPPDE
- protocol-summary: Biacore, low resolution; hybridoma mAb captured on anti-human IgG, monomeric c-fms-pHis analyte at 125 nM
Each entry below lists one item and its recorded pKd value.
Here pKd is given on a logarithmic scale as minus log10 of the concentration in mol/L.

Here are 3 binders together with their reported answers.
[[record]]
binder = "anti-c-fms hybridoma antibody 1.90 (antibody, IgG1, V domains shown, Hybridoma IgG1 (cohort 1); also called 1.90.2) VH: QVQLVESGGGVVQPGRSLRLSCAASGFTFSSYGMHWVRQAPGKGLEWVAVIWYDGSNKYYADSVKGRFTISRDNSKNTLYLQMNSLRAEDTAVYYCASSSSNFYDMDVWGQGTTVTVSS VL: DIQMTQSPSSLSASVGDRVTITCQASQDISNYLNWYQQKPGKAPKLLIYDASNLETGVPSRFSGSGSGTDFTFTISSLQPEDIATYYCQRYDDLPITFGQGTRLEIK"
readout_kind = "pKd"
result = 8.00

[[record]]
binder = "anti-c-fms hybridoma antibody 1.13 (antibody, V domains shown, Hybridoma IgG1 (cohort 1)) VH: QVQLQESGPGLVKPSETLSLTCTVSGGSVSSGGYYWSWIRQPPGKGLEWIGYIYYSGSTNYNPSLKSRVTISVDTSKNQFSLKLSSVTAADTAVYYCAAGIAATGTLFDCWGQGTLVTVSS VL: DIQMTQSPSSLSASVGDRVTITCQASQDISNYLNWYQQKPGKAPKLLIYDASNLETGVPSRFSGSGSGTDFTFIISSLQPEDIATYYCQQFDNLPPTFGGGTKVESK"
readout_kind = "pKd"
result = 8.19

[[record]]
binder = "anti-c-fms hybridoma antibody 2.369 (antibody, IgG2, V domains shown, Hybridoma IgG2 (cohort 2); also called 2.369.3) VH: QVQLVQSGAEVKKPGASVKVSCKVSGYTLTELSMHWVRQAPGKGLEWMGGFDPEDGETIYAQKFQGRVTMTEDTSTDTAYMELSSLRSEDTAVYYCATRAGTTLAYYYYAMDVWGQGTTVTVSS VL: DIQMTQSPSSLSASVGDRVTITCRASQSISRYLNWYQQKPGKAPNLLIHAASSLQSGVPSRFSGSGSGTDFTLTISSLQPEDFATYYCQQSYITPPSFGQGTKLEIK"
readout_kind = "pKd"
result = 7.85


Then there is this binder:
Enquiry: Item anti-c-fms hybridoma antibody 2.534 (antibody, IgG2, V domains shown, Hybridoma IgG2 (cohort 2); also called 2.534.1; 2.534.2) VH: QVQLQESGPGLVKPSQTLSLTCTVSGGSISSGGYYWSWIRQHPGKGLEWIGYISYSGDTYYNPSLKSRLTISVDTSKHQFSLRLSSVTSADTAVYYCASLDLYGDYFDYWGQGTLVTVSS VL: EIVLTQSPDFQSVTPKEKVTITCRASQYIGSSLHWYQQTPDQSPKLLINYVSQSFSGVPSRFSGSGSGTDFTLTINSLEAEDAATYYCHQSSSLPFTFGPGTKVDIK : provide pKd
Return: 7.37
